- System: Huh-7
- experimental.protocol: Cytotoxicity against human HuH7 cells after 2 to 4 days by MTT assay
- Type: cell-based
# label = label 1 if CC50 < 60 µM else label 0

{"columns": ["molecule", "cat"],
 "data": [
  ["COc1ncnc2c1ncn2[C@H]1CO[C@@H](COP(=O)(N[C@@H](C)C(=O)OC(C)C)Oc2ccccc2CCC(=O)OC(C)C)O1 (stereo not given in full)", "label 1"],
  ["CCOC(=O)CCc1ccccc1OP(=O)(N[C@@H](C)C(=O)OCC)OC[C@@H]1OC[C@H](n2cnc3c(NC4CC4)ncnc32)O1 (stereo not given in full)", "label 0"],
  ["CC(C)OC(=O)CCc1ccccc1OP(=O)(N[C@@H](C)C(=O)OC(C)C)OC[C@@H]1OC[C@H](n2cnc3c(NC4CC4)ncnc32)O1 (stereo not given in full)", "label 1"],
  ["CCOC(=O)CCc1ccccc1OP(=O)(N[C@@H](C)C(=O)OCC)OC[C@@H]1OC[C@H](n2cnc3c(N)ncnc32)O1 (stereo not given in full)", "label 1"],
  ["CCOC(=O)CCc1ccccc1OP(=O)(N[C@@H](C)C(=O)OCC)OC[C@@H]1OC[C@H](n2cnc3c(OC)ncnc32)O1 (stereo not given in full)", "label 0"],
  ["CCOC(=O)[C@H](C)NP(=O)(OC[C@@H]1OC[C@H](n2cnc3c(OC)ncnc32)O1)Oc1ccccc1 (stereo not given in full)", "label 0"],
  ["CCOC(=O)[C@H](C)NP(=O)(OC[C@@H]1OC[C@H](n2cnc3c(NC4CC4)ncnc32)O1)Oc1ccccc1 (stereo not given in full)", "label 0"],
  ["Nc1nc(N)c2ncn([C@H]3CO[C@@H](CO)O3)c2n1", "label 0"],
  ["CCOC(=O)[C@H](C)NP(=O)(OC[C@@H]1OC[C@H](n2cnc3c(N)ncnc32)O1)Oc1ccccc1 (stereo not given in full)", "label 1"]
]}

Consider the additional molecule presented here.
Qu. is_below(CC50, 60 µM) for OC[C@@H]1OC[C@H](n2cnc3c(NC4CC4)ncnc32)O1 ?
Ans. label 0

----------
- Tested on: Vero
- experimental.protocol: Cytotoxicity against African green monkey Vero cells after 2 to 4 days by MTT assay
- Format: cell-based
- settings: chlorocebus sabaeus
value.type: CC50

Use the examples below as a reference point.
{"columns": ["compound", "CC50"],
 "data": [
  ["CCOC(=O)[C@H](C)NP(=O)(OC[C@@H]1OC[C@H](n2cnc3c(OC)ncnc32)O1)Oc1ccccc1 (stereo partly specified)", "> 100 µM"],
  ["OC[C@@H]1OC[C@H](n2cnc3c(NC4CC4)ncnc32)O1", "> 100 µM"],
  ["CC(C)OC(=O)CCc1ccccc1OP(=O)(N[C@@H](C)C(=O)OC(C)C)OC[C@@H]1OC[C@H](n2cnc3c(NC4CC4)ncnc32)O1 (stereo partly specified)", "> 100 µM"],
  ["COc1ncnc2c1ncn2[C@H]1CO[C@@H](COP(=O)(N[C@@H](C)C(=O)OC(C)C)Oc2ccccc2CCC(=O)OC(C)C)O1 (stereo partly specified)", "> 100 µM"],
  ["CCOC(=O)CCc1ccccc1OP(=O)(N[C@@H](C)C(=O)OCC)OC[C@@H]1OC[C@H](n2cnc3c(OC)ncnc32)O1 (stereo partly specified)", "93 µM"]
]}

For record CCOC(=O)CCc1ccccc1OP(=O)(N[C@@H](C)C(=O)OCC)OC[C@@H]1OC[C@H](n2cnc3c(N)ncnc32)O1 (stereo partly specified) the listed CC50 is 36 µM

----------
Please provide measured Drug metabolism for the entries that follow.
- Test system: PBMC
- experimental.protocol: Drug metabolism in human PBMC assessed as dioxolane-A triphosphate level measured per 10^6 cells at 50 uM after 4 hrs by LC-MS/MS analysis
- Type: ADME, cell-based
- Design: unit: pmol/10^6 cells
Answers are plain numbers, in pmol.

Would you please look over these solved cases?
{"columns": ["compound", "units.text", "Drug metabolism"],
 "data": [
  ["CCOC(=O)[C@H](C)NP(=O)(OC[C@@H]1OC[C@H](n2cnc3c(NC4CC4)ncnc32)O1)Oc1ccccc1 (stereo not given in full)", "pmol", 0.11],
  ["Nc1ncnc2c1ncn2[C@H]1CO[C@@H](CO)O1", "pmol", 0.18]
]}

Please supply Drug metabolism for each of the following items, keeping them in order.
1. CCOC(=O)CCc1ccccc1OP(=O)(N[C@@H](C)C(=O)OCC)OC[C@@H]1OC[C@H](n2cnc3c(N)ncnc32)O1 (stereo not given in full)
2. CCOC(=O)[C@H](C)NP(=O)(OC[C@@H]1OC[C@H](n2cnc3c(N)ncnc32)O1)Oc1ccccc1 (stereo not given in full)
3. CCOC(=O)CCc1ccccc1OP(=O)(N[C@@H](C)C(=O)OCC)OC[C@@H]1OC[C@H](n2cnc3c(NC4CC4)ncnc32)O1 (stereo not given in full)

Ans.
1. 90
2. 200
3. 0.14

----------
Answer each item with its documented CC50.
- System: Vero
- experimental.protocol: Cytotoxicity against African green monkey Vero cells after 2 to 4 days by MTT assay
- Format: cell-based
- settings: chlorocebus sabaeus

Hey, can you go through the list below and give me CC50 for every item?
1. CCOC(=O)CCc1ccccc1OP(=O)(N[C@@H](C)C(=O)OCC)OC[C@@H]1OC[C@H](n2cnc3c(NC4CC4)ncnc32)O1 (some centres undefined)
2. CCOC(=O)[C@H](C)NP(=O)(OC[C@@H]1OC[C@H](n2cnc3c(N)ncnc32)O1)Oc1ccccc1 (some centres undefined)
3. Nc1nc(N)c2ncn([C@H]3CO[C@@H](CO)O3)c2n1

Ans.
["> 100 µM", "80 µM", "> 100 µM"]

For reference, reported CC50 for CCOC(=O)[C@H](C)NP(=O)(OC[C@@H]1OC[C@H](n2cnc3c(NC4CC4)ncnc32)O1)Oc1ccccc1 (some centres undefined) stands at > 100 µM

----------
- Tested on: PBMC
- experimental.protocol: Cytotoxicity against human PBMC after 2 to 4 days by MTT assay
- Format: cell-based
value.type: CC50

Example cases with answers are listed next.
{"columns": ["compound", "target.of.assay", "value.type", "reported"],
 "data": [
  ["CCOC(=O)CCc1ccccc1OP(=O)(N[C@@H](C)C(=O)OCC)OC[C@@H]1OC[C@H](n2cnc3c(N)ncnc32)O1 (stereo not given in full)", "PBMC", "CC50", "12 µM"],
  ["Nc1nc(N)c2ncn([C@H]3CO[C@@H](CO)O3)c2n1 [AMDOXOVIR]", "PBMC", "CC50", "> 100 µM"],
  ["OC[C@@H]1OC[C@H](n2cnc3c(NC4CC4)ncnc32)O1", "PBMC", "CC50", "> 100 µM"],
  ["CC(C)OC(=O)CCc1ccccc1OP(=O)(N[C@@H](C)C(=O)OC(C)C)OC[C@@H]1OC[C@H](n2cnc3c(NC4CC4)ncnc32)O1 (stereo not given in full)", "PBMC", "CC50", "> 100 µM"],
  ["CCOC(=O)[C@H](C)NP(=O)(OC[C@@H]1OC[C@H](n2cnc3c(NC4CC4)ncnc32)O1)Oc1ccccc1 (stereo not given in full)", "PBMC", "CC50", "> 100 µM"],
  ["CCOC(=O)[C@H](C)NP(=O)(OC[C@@H]1OC[C@H](n2cnc3c(N)ncnc32)O1)Oc1ccccc1 (stereo not given in full)", "PBMC", "CC50", "2 µM"]
]}

// for each compound below, give its CC50
1. CCOC(=O)CCc1ccccc1OP(=O)(N[C@@H](C)C(=O)OCC)OC[C@@H]1OC[C@H](n2cnc3c(OC)ncnc32)O1 (stereo not given in full)
2. CCOC(=O)[C@H](C)NP(=O)(OC[C@@H]1OC[C@H](n2cnc3c(OC)ncnc32)O1)Oc1ccccc1 (stereo not given in full)
3. COc1ncnc2c1ncn2[C@H]1CO[C@@H](COP(=O)(N[C@@H](C)C(=O)OC(C)C)Oc2ccccc2CCC(=O)OC(C)C)O1 (stereo not given in full)

Ans.
1: > 100 µM; 2: > 100 µM; 3: > 100 µM

Note to self: CC50 recorded for CCOC(=O)CCc1ccccc1OP(=O)(N[C@@H](C)C(=O)OCC)OC[C@@H]1OC[C@H](n2cnc3c(NC4CC4)ncnc32)O1 (stereo not given in full) was > 100 µM

----------
- Tested on: CCRF-CEM
- experimental.protocol: Cytotoxicity against human CEM cells after 2 to 4 days by MTT assay
- Format: cell-based
value.type: CC50

{"columns": ["compound", "CC50"],
 "data": [
  ["OC[C@@H]1OC[C@H](n2cnc3c(NC4CC4)ncnc32)O1", "> 100 µM"],
  ["CCOC(=O)CCc1ccccc1OP(=O)(N[C@@H](C)C(=O)OCC)OC[C@@H]1OC[C@H](n2cnc3c(OC)ncnc32)O1 (stereo not given in full)", "> 100 µM"]
]}

Please look at the items below and tell me CC50 for each one, in order.
1. CCOC(=O)[C@H](C)NP(=O)(OC[C@@H]1OC[C@H](n2cnc3c(N)ncnc32)O1)Oc1ccccc1 (stereo not given in full)
2. CCOC(=O)[C@H](C)NP(=O)(OC[C@@H]1OC[C@H](n2cnc3c(NC4CC4)ncnc32)O1)Oc1ccccc1 (stereo not given in full)
3. CCOC(=O)CCc1ccccc1OP(=O)(N[C@@H](C)C(=O)OCC)OC[C@@H]1OC[C@H](n2cnc3c(NC4CC4)ncnc32)O1 (stereo not given in full)
4. Nc1nc(N)c2ncn([C@H]3CO[C@@H](CO)O3)c2n1 [AMDOXOVIR]

Ans.
["18 µM", "> 100 µM", "> 100 µM", "> 100 µM"]

For every record below, what is its CC50?
1. COc1ncnc2c1ncn2[C@H]1CO[C@@H](COP(=O)(N[C@@H](C)C(=O)OC(C)C)Oc2ccccc2CCC(=O)OC(C)C)O1 (stereo not given in full)
2. CC(C)OC(=O)CCc1ccccc1OP(=O)(N[C@@H](C)C(=O)OC(C)C)OC[C@@H]1OC[C@H](n2cnc3c(NC4CC4)ncnc32)O1 (stereo not given in full)
3. CCOC(=O)CCc1ccccc1OP(=O)(N[C@@H](C)C(=O)OCC)OC[C@@H]1OC[C@H](n2cnc3c(N)ncnc32)O1 (stereo not given in full)
4. CCOC(=O)[C@H](C)NP(=O)(OC[C@@H]1OC[C@H](n2cnc3c(OC)ncnc32)O1)Oc1ccccc1 (stereo not given in full)

Ans.
["> 100 µM", "84 µM", "53 µM", "> 100 µM"]

Numbers sourced from ChEMBL document CHEMBL2406962.
